assay: gradient 5% acetonitrile 3 min, to 50% in 2 min, to 85% in 15 min, held 3 min, 100 µL/min; conditions: column: Zorbax Extend-C18 2.1 x 50 mm; eluents: water / acetonitrile, 0.1% formic acid
The entries below are paired with their reported RP-LC retention time.
quantity: RP-LC retention time (s)

1. CC1=CC(=C2C=CC(=O)C=C2)C=C(C)N1C: 620
2. O=C(O)c1ccc(Nc2c(-c3ccc(Cl)cc3)nc3cnccn23)cc1: 737
3. Cc1cc2nn(CC(=O)N3CCCc4ccccc43)c(=O)n2c(Nc2ccc(F)cc2)n1: 1060
4. Cc1ccccc1-c1nnc(COc2ccc(NC(=O)c3ccsc3)cc2)o1: 911
5. Cc1sc2cc(C(=O)N3CCN(c4ccccc4)CC3)[nH]c2c1CN1CCOCC1: 710
6. COc1ccc(C(=O)N2C[C@@H]3C[C@H](NC(=O)c4cccs4)[C@H]2C3)c(C)c1: 628
7. COc1cc(OC)cc(C(=O)Nc2ccc3sccc3c2)c1: 882
8. CCNC(=O)[C@H]1O[C@@H](n2cnc3c(N)ncnc32)C(O)[C@H]1O (some centres undefined): 555
9. CCN(CC)CCNc1ncnc2onc(-c3cc(F)cc(F)c3)c12: 651
10. Clc1ccc(Cl)c(-c2ccc(-c3nn4c(-c5ccco5)nnc4s3)o2)c1: 1260
11. CCc1nc(-c2ccc(-c3noc(CNC(=O)c4ccccc4)n3)cc2)cs1: 963
12. O=C(C1CCCN(c2cnc3nccnc3c2)C1)N1CCN(C2CCCCC2)CC1 (centres undefined): 567
13. COc1ccc(CC(=O)Nc2ccc3c(c2)Sc2ncccc2C(=O)N3C(C)C)cc1: 844
14. O=C(C1CCCN(c2ccc3cc(S(=O)(=O)N4CCCC4)ccc3n2)C1)N1CCc2ccccc21 (centres undefined): 884
15. COc1cccc(N2C(=O)CC(N3CCC(C(N)=O)CC3)C2=O)c1 (centres undefined): 585
16. COc1cc(Cl)c(NC(=O)Cn2cc(-c3nnc(C)o3)c3ccccc32)c(OC)c1: 836
17. Cc1ccnc(N2CCCC(C(=O)N3CCC(C(N)=O)(N4CCCCC4)CC3)C2)n1 (centres undefined): 542
18. COc1ccccc1NC(=O)c1c(O)c2cccnc2n(-c2ccc(F)cc2)c1=O: 864
19. CCc1c(C(=O)O)nnn1-c1cccc(OC)c1: 704
